Source listed as ChEMBL document CHEMBL3603746.

// reported fold change (FC) per item
# experimental-protocol: Induction of H2S release in 10% PBS:MeCN solution at 0.5 mM incubated at 37 degC in dark condition measured at 48 hrs by 2, 6-dansyl azide probed-based fluorescence assay relative to 6.9 uM of GYY4137
# Format: physicochemical
# measurement-parameters: buffer, 500 µM

| molecular-string | fold change (FC) |
| --- | --- |
| NCC1CCCCC1.S=P(S)(NCC1CCCCC1)NCC1CCCCC1 | 31.6 |
| C1CSCCN1.S=P(S)(N1CCSCC1)N1CCSCC1 | 90.7 |
| C1COCCN1.S=P(S)(N1CCOCC1)N1CCOCC1 | 110.4 |
| NCc1ccccc1.S=P(S)(NCc1ccccc1)NCc1ccccc1 | 2.8 |

---

# experimental-protocol: Induction of H2S release in 10% PBS:MeCN solution at 5 mM incubated at 22 degC in dark condition measured at 96 hrs by 2, 6-dansyl azide probed-based fluorescence assay relative to GYY4137
# Type: physicochemical
# measurement-parameters: buffer, 5000 µM
// reported fold change (FC) per item

| compound | fold change (FC) |
| --- | --- |
| C1COCCN1.COc1ccc(P(=S)(S)OC)cc1 (centres undefined) | < 0.1 |
| NCc1ccccc1.S=P(S)(NCc1ccccc1)c1ccc(Oc2ccccc2)cc1 (centres undefined) | 0.9 |
| COc1ccc(P(=S)(S)NCc2ccccc2)cc1.NCc1ccccc1 (centres undefined) | 1.5 |
| C1COCCN1.CCCCOP(=S)(S)c1ccc(OC)cc1 (centres undefined) | < 0.1 |
| C1COCCN1.COc1ccc(P(=S)(S)OC(C)C)cc1 (centres undefined) | < 0.1 |
| C1COCCN1.S=P(S)(c1ccc(Oc2ccccc2)cc1)N1CCOCC1 (centres undefined) | 1.2 |
| C1COCCN1.CC(C)OP(=S)(S)c1ccc(Oc2ccccc2)cc1 (centres undefined) | < 0.1 |
| COc1ccc(P(=S)(S)OCCCN)cc1 (centres undefined) | < 0.1 |
| C1COCCN1.COP(=S)(S)c1ccc(Oc2ccccc2)cc1 (centres undefined) | < 0.1 |

---

// reported %max per item
# experimental-protocol: Induction of H2S release in 10% PBS:MeCN solution at 5 mM incubated at 22 degC in dark condition measured at 96 hrs by 2, 6-dansyl azide probed-based fluorescence assay relative to control
# measurement-parameters: buffer, 5000 µM

| molecule | units | %max |
| --- | --- | --- |
| C1COCCN1.COc1ccc(P(=S)(S)OC)cc1 (centres undefined) | % | 0.06 |
| COc1ccc(P(=S)(S)NCc2ccccc2)cc1.NCc1ccccc1 (centres undefined) | % | 2.19 |
| C1COCCN1.COc1ccc(P(=S)(S)OC(C)C)cc1 (centres undefined) | % | 0.04 |
| C1COCCN1.S=P(S)(c1ccc(Oc2ccccc2)cc1)N1CCOCC1 (centres undefined) | % | 1.68 |

---

# experimental-protocol: Induction of H2S release in 10% PBS:MeCN solution assessed as ratio of H2S level at 37 degC to H2S level at 22 degC at 0.5 mM incubated in dark condition measured at 96 hrs by 2, 6-dansyl azide probed-based fluorescence assay
# Assay type: physicochemical
# measurement-parameters: buffer, 500 µM
// reported Ratio per item
endpoint: Ratio

| molecular-string | number |
| --- | --- |
| NCc1ccccc1.S=P(S)(NCc1ccccc1)NCc1ccccc1 | 0.8 |
| NCC1CCCCC1.S=P(S)(NCC1CCCCC1)NCC1CCCCC1 | 2.7 |
| C1CSCCN1.S=P(S)(N1CCSCC1)N1CCSCC1 | 1.3 |
| C1COCCN1.S=P(S)(N1CCOCC1)N1CCOCC1 | 1.1 |

---

// reported IC50 at 24 h per item
# experimental-protocol: Toxicity in human AC10 cells assessed as inhibition of cell proliferation after 24 hrs by CellTiter-Glo cell viability assay
# Type: cell-based

| molecule | units | IC50 at 24 h |
| --- | --- | --- |
| S=P1(c2ccccc2)Nc2ccccc2O1 (configuration not stated) | µM | 98 |
| NCc1ccccc1.S=P(S)(NCc1ccccc1)c1ccc(Oc2ccccc2)cc1 (configuration not stated) | µM | 62.6 |

---

# experimental-protocol: Effective permeability of the compound at 500 uM after 6 hrs by PAMPA
# measurement-parameters: PAMPA
Returns 1 (yes) if the recorded Papp at 6 h, 500 µM is greater than or equal to 0.01 ×10⁻⁶ cm/s, and 0 (no) otherwise.

| compound | category |
| --- | --- |
| NCc1ccccc1.S=P(S)(NCc1ccccc1)c1ccc(Oc2ccccc2)cc1 (stereo not given) | 1 (yes) |
| C1COCCN1.S=P(S)(c1ccc(Oc2ccccc2)cc1)N1CCOCC1 (stereo not given) | 1 (yes) |
| COc1ccc(P(=S)(S)OCCCN)cc1 (stereo not given) | 0 (no) |
| C1COCCN1.CC(C)OP(=S)(S)c1ccc(Oc2ccccc2)cc1 (stereo not given) | 0 (no) |
| CCNCCOP(=S)(S)c1ccc(OC)cc1 (stereo not given) | 1 (yes) |

---

# experimental-protocol: Induction of H2S release in 10% PBS:MeCN solution at 100 uM incubated at 37 degC in dark condition measured at 72 hrs by 2, 6-dansyl azide probed-based fluorescence assay
# Assay type: physicochemical
# measurement-parameters: buffer
// reported Activity per item

| compound | units | Activity |
| --- | --- | --- |
| COc1ccc(P2(=S)Nc3ccccc3O2)cc1 (stereo not drawn) | µM | 42.7 |
| COc1ccc(P2(=S)Nc3cc(F)ccc3O2)cc1 (stereo not drawn) | µM | 33.3 |
| COc1ccc(P2(=S)Nc3ccc(C)cc3O2)cc1 (stereo not drawn) | µM | 48.2 |
| S=P1(c2ccccc2)Nc2ccccc2O1 (stereo not drawn) | µM | 77.6 |
| CN1c2ccccc2OP1(=S)c1ccccc1 (stereo not drawn) | µM | 20.7 |
| COc1ccc(P2(=S)Oc3ccccc3N2C)cc1 (stereo not drawn) | µM | 10.1 |
| Cc1ccc2c(c1)OP(=S)(c1ccc(Oc3ccccc3)cc1)N2 (stereo not drawn) | µM | 59.9 |

---

# experimental-protocol: Induction of H2S release in 10% PBS:MeCN solution assessed as ratio of H2S level at 37 degC to H2S level at 22 degC at 5 mM incubated in dark condition measured at 96 hrs by 2, 6-dansyl azide probed-based fluorescence assay
# measurement-parameters: buffer, 5000 µM
Returns label 1 if the recorded Ratio is greater than or equal to 3, and label 0 otherwise.

| compound | category |
| --- | --- |
| C1COCCN1.S=P(S)(c1ccc(Oc2ccccc2)cc1)N1CCOCC1 (centres undefined) | label 1 |
| C1COCCN1.COc1ccc(P(=S)(S)OC)cc1 (centres undefined) | label 0 |
| NCc1ccccc1.S=P(S)(NCc1ccccc1)c1ccc(Oc2ccccc2)cc1 (centres undefined) | label 0 |
| COc1ccc(P(=S)(S)OCCCN)cc1 (centres undefined) | label 0 |
| C1COCCN1.CCCCOP(=S)(S)c1ccc(OC)cc1 (centres undefined) | label 1 |
| COc1ccc(P(=S)(S)NCc2ccccc2)cc1.NCc1ccccc1 (centres undefined) | label 0 |
| C1COCCN1.COP(=S)(S)c1ccc(Oc2ccccc2)cc1 (centres undefined) | label 0 |
| C1COCCN1.CC(C)OP(=S)(S)c1ccc(Oc2ccccc2)cc1 (centres undefined) | label 0 |

---

// reported %max per item
# experimental-protocol: Induction of H2S release in 10% PBS:MeCN solution at 0.5 mM incubated at 37 degC in dark condition measured at 48 hrs by 1 mM 2, 6-dansyl azide probed-based fluorescence assay relative to control
# Assay type: physicochemical
# measurement-parameters: buffer, 500 µM

| molecular-string | units | %max |
| --- | --- | --- |
| NCc1ccccc1.S=P(S)(NCc1ccccc1)NCc1ccccc1 | % | 1.9 |
| NCC1CCCCC1.S=P(S)(NCC1CCCCC1)NCC1CCCCC1 | % | 21.8 |
| C1CSCCN1.S=P(S)(N1CCSCC1)N1CCSCC1 | % | 62.6 |
| C1COCCN1.S=P(S)(N1CCOCC1)N1CCOCC1 | % | 76.2 |

---

// reported selectivity ratio per item
# experimental-protocol: Therapeutic index, ratio of IC50 for human WI38 cells to IC50 for human SKOV3 cells
# measurement-parameters: WI38 cells and SKOV3 cells
endpoint: selectivity ratio

| compound | endpoint | number |
| --- | --- | --- |
| COc1ccc(P2(=S)Nc3ccc(C)cc3O2)cc1 (stereo not given) | selectivity ratio | 1.9 |
| NCc1ccccc1.S=P(S)(NCc1ccccc1)NCc1ccccc1 | selectivity ratio | 1.4 |
| Fc1ccc2c(c1)NP(=S)(c1ccc(Oc3ccccc3)cc1)O2 (stereo not given) | selectivity ratio | 1.7 |
| C1COCCN1.COc1ccc(P(=S)(S)OC(C)C)cc1 (stereo not given) | selectivity ratio | 1.5 |
| COc1ccc(P2(=S)Nc3ccccc3O2)cc1 (stereo not given) | selectivity ratio | 2.5 |
| COc1ccc(P(=S)(S)NCc2ccccc2)cc1.NCc1ccccc1 (stereo not given) | selectivity ratio | 2.3 |
| C1COCCN1.CCCCOP(=S)(S)c1ccc(OC)cc1 (stereo not given) | selectivity ratio | 1.1 |
| NCC1CCCCC1.S=P(S)(NCC1CCCCC1)NCC1CCCCC1 | selectivity ratio | 1 |
| COc1ccc(P2(=S)Oc3ccccc3N2C)cc1 (stereo not given) | selectivity ratio | 2.1 |
| C1COCCN1.S=P(S)(c1ccc(Oc2ccccc2)cc1)N1CCOCC1 (stereo not given) | selectivity ratio | 2 |
| S=P1(c2ccccc2)Nc2ccccc2O1 (stereo not given) | selectivity ratio | 8.2 |
| Cc1ccc2c(c1)OP(=S)(c1ccc(Oc3ccccc3)cc1)N2 (stereo not given) | selectivity ratio | 2 |
| C1CSCCN1.S=P(S)(N1CCSCC1)N1CCSCC1 | selectivity ratio | 1.5 |
| COc1ccc(P2(=S)Nc3cc(F)ccc3O2)cc1 (stereo not given) | selectivity ratio | 2.8 |
| C1COCCN1.COP(=S)(S)c1ccc(Oc2ccccc2)cc1 (stereo not given) | selectivity ratio | 1.9 |
| NCc1ccccc1.S=P(S)(NCc1ccccc1)c1ccc(Oc2ccccc2)cc1 (stereo not given) | selectivity ratio | 1.5 |
| COc1ccc(P2(=S)Nc3cc(OC)ccc3O2)cc1 (stereo not given) | selectivity ratio | 2.9 |
| C1COCCN1.CC(C)OP(=S)(S)c1ccc(Oc2ccccc2)cc1 (stereo not given) | selectivity ratio | 1.4 |
| C1COCCN1.S=P(S)(N1CCOCC1)N1CCOCC1 | selectivity ratio | 2.6 |
| CN1c2ccccc2OP1(=S)c1ccccc1 (stereo not given) | selectivity ratio | 2.8 |
